measurementTarget: βTrCP/Skp1 (Homo sapiens)
Sequence (Q9Y297 whole entry): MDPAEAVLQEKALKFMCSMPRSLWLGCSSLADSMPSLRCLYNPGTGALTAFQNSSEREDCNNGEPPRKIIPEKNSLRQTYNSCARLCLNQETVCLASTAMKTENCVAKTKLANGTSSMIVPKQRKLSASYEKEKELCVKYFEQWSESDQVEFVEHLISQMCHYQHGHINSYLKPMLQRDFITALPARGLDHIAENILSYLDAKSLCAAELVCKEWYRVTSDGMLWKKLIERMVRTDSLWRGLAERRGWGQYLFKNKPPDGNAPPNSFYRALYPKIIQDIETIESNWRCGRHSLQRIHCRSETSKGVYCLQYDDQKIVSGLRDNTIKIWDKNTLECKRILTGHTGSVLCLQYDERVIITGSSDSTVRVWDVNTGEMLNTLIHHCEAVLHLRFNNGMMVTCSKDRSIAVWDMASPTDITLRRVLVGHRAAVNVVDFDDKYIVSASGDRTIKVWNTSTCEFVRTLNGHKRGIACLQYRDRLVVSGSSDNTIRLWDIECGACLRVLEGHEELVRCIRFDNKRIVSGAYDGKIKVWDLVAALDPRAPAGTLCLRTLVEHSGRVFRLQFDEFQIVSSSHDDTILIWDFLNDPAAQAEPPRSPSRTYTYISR
Sequence (P63208 whole entry partner): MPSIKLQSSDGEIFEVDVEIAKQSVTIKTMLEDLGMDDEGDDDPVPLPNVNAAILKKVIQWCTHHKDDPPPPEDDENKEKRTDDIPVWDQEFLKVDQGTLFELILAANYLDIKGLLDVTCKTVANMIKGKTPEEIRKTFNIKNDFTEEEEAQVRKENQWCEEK
assayInfo: Surface plasmon resonance (SPR), Biacore T200
Type: binding
details: apparent KD averaged over both surfaces
Starred links: 1 amine or outer side, 2 acyl side, 3 side chain; linkers in the order of their positions; H or OH if unused. Non-standard residues stand in square brackets, D forms with d. Residues, ends and D or L forms follow the SMILES beside them. *: point of attachment. Phe(4-NO2) = N[C@@H](Cc1ccc([N+](=O)[O-])cc1)C(=O)O; Phe(3-F) = N[C@@H](Cc1cccc(F)c1)C(=O)O; Phe(2-F) = N[C@@H](Cc1ccccc1F)C(=O)O; Suc = O=C(CCC(=O)[*:2])[*:1]; Ethoxycarbonyl = CCOC(=O)*
Assign labels as follows, please: 1.0 for Kd below 0.5 µM; 0.0 for Kd equal to or exceeding 0.5 µM.

Task: Does the reported Kd of NC(=O)[C@H](CCC(=O)O)NC(=O)[C@H](Cc1ccc([N+](=O)[O-])cc1)NC(=O)[C@H](Cc1cccc(F)c1)NC(=O)CNC(=O)[C@H](CCC(=O)O)NC(=O)CCC(=O)O [UBP004, Suc-EGF(3F)F(4NO2)E-NH2] (Suc-EG[Phe(3-F)][Phe(4-NO2)]E-NH2) stay below 0.5 µM?
Output: 0.0

Task: Does the reported Kd of NC(=O)[C@H](CCC(=O)O)NC(=O)[C@H](Cc1ccc([N+](=O)[O-])cc1)NC(=O)[C@H](Cc1ccccc1F)NC(=O)CNC(=O)[C@H](CCC(=O)O)NC(=O)CCC(=O)O [UBP003, Suc-EGF(2F)F(4NO2)E-NH2] (Suc-EG[Phe(2-F)][Phe(4-NO2)]E-NH2) stay below 0.5 µM?
Output: 0.0

Task: Does the reported Kd of NC(=O)[C@H](CCC(=O)O)NC(=O)[C@H](Cc1ccccc1)NC(=O)[C@H](Cc1ccc(O)cc1)NC(=O)CNC(=O)[C@H](CCC(=O)O)NC(=O)CCC(=O)O [UBP007, Suc-EGYFE-NH2] (Suc-EGYFE-NH2) stay below 0.5 µM?
Output: 0.0

Task: Does the reported Kd of CCOC(=O)N[C@H](CC(=O)O)C(=O)N[C@@H](CCC(=O)O)C(=O)NCC(=O)N[C@@H](Cc1cccc(F)c1)C(=O)N[C@@H](Cc1c[nH]c2ccccc12)C(=O)N[C@@H](CCC(=O)O)C(N)=O [UBP023, EtO(CO)-dEGF(3F)WE-NH2] (Ethoxycarbonyl-[dD]EG[Phe(3-F)]WE-NH2) stay below 0.5 µM?
Output: 1.0

Task: Does the reported Kd of NC(=O)[C@H](CCC(=O)O)NC(=O)[C@H](Cc1c[nH]c2ccccc12)NC(=O)[C@H](Cc1cccc(F)c1)NC(=O)CNC(=O)[C@H](CCC(=O)O)NC(=O)CCC(=O)O [UBP014, Suc-EGF(3F)WE-NH2] (Suc-EG[Phe(3-F)]WE-NH2) stay below 0.5 µM?
Output: 1.0
